# SYSTEM: VEGF receptors on bovine aorta endothelial cell (BAEC) membranes
# MEASUREMENT DESCRIPTION: displacement of [125I]-VEGF from BAEC membranes (1 ug membrane protein) by QK at 10^-13 to 10^-8 M, gamma counter
TEST READOUT: pKd
By convention, pKd is the negative base-10 log of a molar concentration.

Task item: Tell me its pKd given Ac-KLTWQELYQLKYKGI-NH2 [QK peptide (SEQ ID No.8)] as the entry.
Reply: 9.50
